# remaining activity at 10 µM annotations
biological target: FGFR4 (Homo sapiens, UniProt P22455); construct: purchased Eurofins Pharma Discovery Services (KinaseProfiler; Cerep BioPrint panel); test: kinase selectivity panel; assay type: biochemical; conditions: read-out: percentage of control activity (POC), FGFR4
Sequence (P22455 22-802): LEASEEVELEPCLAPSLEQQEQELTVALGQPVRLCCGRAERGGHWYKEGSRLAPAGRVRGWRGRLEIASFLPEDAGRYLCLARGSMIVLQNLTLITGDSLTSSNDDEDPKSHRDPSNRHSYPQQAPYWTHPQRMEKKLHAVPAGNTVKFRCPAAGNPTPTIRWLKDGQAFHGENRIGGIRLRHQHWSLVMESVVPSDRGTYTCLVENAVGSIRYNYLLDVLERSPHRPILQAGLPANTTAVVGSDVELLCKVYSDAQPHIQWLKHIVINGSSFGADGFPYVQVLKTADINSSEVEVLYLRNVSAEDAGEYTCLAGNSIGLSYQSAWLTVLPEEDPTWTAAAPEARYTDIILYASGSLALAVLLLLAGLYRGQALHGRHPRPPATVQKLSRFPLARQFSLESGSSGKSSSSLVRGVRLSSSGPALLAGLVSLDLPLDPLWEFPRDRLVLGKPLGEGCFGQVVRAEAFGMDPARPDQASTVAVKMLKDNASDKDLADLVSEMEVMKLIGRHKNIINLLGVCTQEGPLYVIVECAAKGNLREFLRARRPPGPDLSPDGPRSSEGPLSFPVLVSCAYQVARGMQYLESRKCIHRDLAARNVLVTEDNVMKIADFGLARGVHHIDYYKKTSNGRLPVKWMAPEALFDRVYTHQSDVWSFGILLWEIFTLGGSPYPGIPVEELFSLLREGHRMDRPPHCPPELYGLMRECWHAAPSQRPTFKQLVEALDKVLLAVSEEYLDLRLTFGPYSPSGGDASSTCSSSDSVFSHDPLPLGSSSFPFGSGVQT
ENDPOINT: remaining activity at 10 µM (%)

> print(dat)
                                   molecule                   experimental.system  obs.value
1  Cn1cc(-c2cccc(-c3nc(C(=O)NC4C5CC6CC4CC(O)(C6)C5)c(N)nc3N)c2)cn1 (centres unmarked)  FGFR4 (Homo sapiens, UniProt P22455)         86
2  COc1c(NC(=O)c2ccc(C)c(-c3nnc4c(NCC(C)(C)C)nccn34)c2)cc(C(C)(C)C)cc1NS(C)(=O)=O [compound 7, reference compound]  FGFR4 (Homo sapiens, UniProt P22455)         89
3  CS(=O)(=O)N1CCN(c2ccc(Nc3ncc(C(N)=O)c(NC4CC4)n3)cc2)CC1  FGFR4 (Homo sapiens, UniProt P22455)         73
4  CC(C)(C)N1CCC(c2cc(-c3ccc(F)cc3Cl)c3cc[n+]([O-])c(-c4c(Cl)cccc4Cl)c3n2)CC1  FGFR4 (Homo sapiens, UniProt P22455)         88
5  Cc1ccc(C(=O)NCC2CC2)cc1-c1ccc2c(c1)NC(=O)C21CCCC1  FGFR4 (Homo sapiens, UniProt P22455)         91
